# run_description: Cell Viability - LYMP1-002 - Assay at 40 hr (AID 994); also: nearly all actives have a fitted effect of over 60% in size
# test_settings: LYMP1-002 lymphoblastoid cell viability; series mostly up to 92.2 µM
Records with an inconclusive call do not appear. Calls of active or inactive are those of the source. Calls follow the shape of the dose curve; as a rule, active = well fitted cell-killing curve with a large enough effect; inconclusive = small, poorly fitted or top-dose-only effect; inactive = flat fitted curve, though single readings scatter.
Select the correct class. Options are 1 (yes) = active, 0 (no) = inactive and nothing else.

INPUT: Query: recorded result category for ClC=C(Cl)Cl in this test
OUTPUT: 0 (no)

INPUT: Query: recorded result category for CCOC(=O)c1ccccc1C(=O)OCC in this test
OUTPUT: 0 (no)

More entries:
INPUT: Query: recorded result category for [Cl-].[Cl-].[Hg+2] in this test
OUTPUT: 1 (yes)

INPUT: Query: recorded result category for O=C1C=CC(=O)C=C1 in this test
OUTPUT: 0 (no)

INPUT: Query: recorded result category for O=CC=O in this test
OUTPUT: 0 (no)

INPUT: Query: recorded result category for NNC(N)=O in this test
OUTPUT: 0 (no)

INPUT: Query: recorded result category for O=[N+]([O-])c1ccc(F)c([N+](=O)[O-])c1 in this test
OUTPUT: 0 (no)

INPUT: Query: recorded result category for S=C=S in this test
OUTPUT: 0 (no)

INPUT: Query: recorded result category for O=[N+]([O-])c1ccccc1 in this test
OUTPUT: 0 (no)

INPUT: Query: recorded result category for C[C@]12CCC(=O)C[C@@H]1CC[C@@H]1[C@@H]2CC[C@]2(C)[C@@H](O)CC[C@@H]12 in this test
OUTPUT: 0 (no)

INPUT: Query: recorded result category for CCCCCl in this test
OUTPUT: 0 (no)

INPUT: Query: recorded result category for C[C@H]1CCC[C@H](O)CCCCCc2cc(O)cc(O)c2C(=O)O1 in this test
OUTPUT: 0 (no)

INPUT: Query: recorded result category for C[C@H]1CC[C@@H]2[C@@H](C)[C@H]3[C@H](C[C@H]4[C@@H]5CC=C6CC(O[C@@H]7O[C@H](CO)[C@H](O)[C@H](O[C@@H]8O[C@H](CO)[C@@H](O)[C@H](O)[C@H]8O)[C@H]7O[C@H]7O[C@@H](C)[C@H](O)[C@@H](O)[C@H]7O)CC[C@]6(C)[C@H]5CC[C@]34C)N2C1 (stereo not given in full) in this test
OUTPUT: 1 (yes)

INPUT: Query: recorded result category for O=Cc1ccco1 in this test
OUTPUT: 0 (no)

INPUT: Query: recorded result category for ClCC1CO1 (stereo not given) in this test
OUTPUT: 0 (no)

---

# run_description: P-glycoprotein substrates identified in KB-3-1 adenocarcinoma cell line, qHTS therapeutic library screen (AID 1346986); also: nearly all actives have a fitted effect of over 60% in size
# test_settings: KB-3-1 parental cells viability, CellTiter-Glo, 72 h; series mostly up to 44.5 µM
Results filed as inconclusive are left out. Active and inactive are the calls of the source. Calls follow the shape of the dose curve; as a rule, active = well fitted inhibition curve with a large enough effect; inconclusive = small, poorly fitted or top-dose-only effect; inactive = no such curve, though single readings can be large or run the other way.
observation_type: outcome

INPUT: Please give measured outcome of the following entry: O=C(O)c1ccnc2cc(C(OCCN3CCCCC3)c3ccccc3Cl)[nH]c12 (configuration not stated)
OUTPUT: inactive

INPUT: Please give measured outcome of the following entry: Cc1c(Cl)cccc1S(=O)(=O)Nc1nc(CC(=O)N2CCN(C)CC2)cs1
OUTPUT: inactive

INPUT: Please give measured outcome of the following entry: Oc1ccc2c3c1O[C@H]1[C@H](N(CCCl)CCCl)CC[C@@]4(O)[C@@H](C2)N(CC2CC2)CC[C@]314
OUTPUT: inactive [at 9.29 µM]

INPUT: Please give measured outcome of the following entry: C=C(C)[C@H]1O[C@H]2CC[C@@]3(C)[C@@](O)(CC[C@H]4[C@@H]5OC(C)(C)[C@H]6C[C@@H]7C(=C)Cc8c(Cl)cc9[nH]c(c5c9c8[C@@]76O)[C@@]43C)[C@]23O[C@@H]3[C@H]1O
OUTPUT: inactive

INPUT: Please give measured outcome of the following entry: C/C=C(\C)C(=O)OC1CC2C(CC=C3CC(OC4CC(OC)C(OC5CC(OC)C(OC6OC(C)C(OC7OC(CO)C(O)C(O)C7O)C(OC)C6O)C(C)O5)C(C)O4)CCC32C)C2(O)CCC(C(C)=O)C12C (configuration not stated)
OUTPUT: inactive [at 9.29 µM]

INPUT: Please give measured outcome of the following entry: CC1=CC2/C=C(\C)CCC(O)C3OC(C)(C)OC3CC(=O)OC23C(=O)NC(CC(C)C)C3C1C (configuration not stated)
OUTPUT: inactive

Please find the next molecule below.
INPUT: Please give measured outcome of the following entry: COCC1OC(=O)c2coc3c2C1(C)C1=C(C3=O)C2CCC(=O)C2(C)CC1O (configuration not stated)
OUTPUT: inactive

---

# Test system: HeLa
# run_description: Primary qHTS to identify gynecologic anti-cancer compounds using libraries of approved drugs and bioactive compounds (AID 1345084); also: % is scaled to controls: 0 for no effect and ±100 for the full control effect; nearly all actives have a fitted effect of over 55% in size
# test_settings: Gynecologic cancer cell panel viability, ATPlite luminescence, 48 h; series mostly up to 57.5 µM
Results filed as inconclusive are left out. Activity calls are given as the source filed them. Calls come from the whole dose curve; as a rule, active = well fitted cell-killing curve with a large enough effect; inconclusive = small, poorly fitted or top-dose-only effect, or effect the other way; inactive = flat fitted curve, though single readings scatter.
observation_type: activity change, negative = cytotoxicity

INPUT: Please give measured activity change, negative = cytotoxicity of the following entry: CCc1c(C(=O)C(N)=O)c2c(OCC(=O)OC)cccc2n1Cc1ccccc1
OUTPUT: inactive

INPUT: Please give measured activity change, negative = cytotoxicity of the following entry: Oc1ccc2c3c1O[C@H]1[C@H](N(CCCl)CCCl)CC[C@@]4(O)[C@@H](C2)N(CC2CC2)CC[C@]314
OUTPUT: 1.82% [at 11.6 µM] (inactive)

INPUT: Please give measured activity change, negative = cytotoxicity of the following entry: C/C=C(\C)C(=O)OC1CC2C(C)(C)OC(=O)CC(OC(C)=O)C2(C)C2CC(OC(=O)C(C)C)C3(C)C(c4ccoc4)CC4OC43C12C (centres undefined)
OUTPUT: inactive

INPUT: Please give measured activity change, negative = cytotoxicity of the following entry: CC1=CC2/C=C(\C)CCC(O)C3OC(C)(C)OC3CC(=O)OC23C(=O)NC(CC(C)C)C3C1C (centres undefined)
OUTPUT: inactive

---

# Tested on: CP256
# run_description: qHTS profiling for inhibitors of Plasmodium falciparum proliferation (AID 504749); also: nearly all actives have a fitted effect of over 60% in size
# test_settings: P. falciparum in erythrocytes, SYBR Green DNA, 72 h; series mostly up to 28.7 µM
Results filed as inconclusive are left out. Activity calls are given as the source filed them. The call rests on the fitted dose curve; in most records, active means well fitted inhibition curve with a large enough effect; inconclusive means small, poorly fitted or top-dose-only effect; inactive means flat fitted curve, though single readings scatter.
Select the correct class. Options are T (active), F (inactive) and nothing else.

Known results for compounds:
INPUT: Query: recorded result category for Cc1sc2ccccc2c1CC1=NCCN1 in this test
OUTPUT: F

INPUT: Query: recorded result category for CC(C)(C)c1cc(O)ccc1O in this test
OUTPUT: T

INPUT: Query: recorded result category for CC(=O)OO in this test
OUTPUT: F

INPUT: Query: recorded result category for CN1C2CCC1CC(OC(c1ccccc1)c1ccc(Cl)cc1)C2 (stereo not drawn) in this test
OUTPUT: T

INPUT: Query: recorded result category for C[C@]12CCC(=O)C[C@@H]1CC[C@@H]1[C@@H]2CC[C@]2(C)[C@@H](O)CC[C@@H]12 in this test
OUTPUT: F

More entries:
INPUT: Query: recorded result category for C[CH2][Hg][S]c1ccccc1C(=O)O in this test
OUTPUT: T

INPUT: Query: recorded result category for CCC1(c2ccccc2)C(=O)NC(=O)NC1=O in this test
OUTPUT: F

INPUT: Query: recorded result category for CCC1(c2ccccc2)C(=O)NC(=O)N(C(=O)c2ccccc2)C1=O (stereo not drawn) in this test
OUTPUT: F

INPUT: Query: recorded result category for CCOC(=O)c1ccccc1C(=O)OCC in this test
OUTPUT: F

INPUT: Query: recorded result category for CC(C)(O)C1C2OC(=O)C1C1(O)CC3OC34C(=O)OC2C14C (stereo not drawn) in this test
OUTPUT: F

INPUT: Query: recorded result category for COc1ccc2c(c1OC)C(=O)OC2C1c2cc3c(cc2CCN1C)OCO3 (stereo not drawn) in this test
OUTPUT: F

INPUT: Query: recorded result category for COCC(C)N(C(=O)CCl)c1c(C)csc1C (stereo not drawn) in this test
OUTPUT: F

INPUT: Query: recorded result category for O=[N+]([O-])c1ccccc1 in this test
OUTPUT: F

---

# System: astro
# run_description: Drug repurposing screens with cells derived from glioblastoma tumor samples (AID 1345199); also: nearly all actives have a fitted effect of over 40% in size
# test_settings: viability, ATP luminescence, 48 h; series mostly up to 45.9 µM
Records with an inconclusive call do not appear. Active and inactive are the calls of the source. Calls follow the shape of the dose curve; as a rule, active = well fitted inhibition curve with a large enough effect; inconclusive = small, poorly fitted or top-dose-only effect; inactive = flat fitted curve, though single readings scatter.
Select the correct class. Options are active, inactive and nothing else.

Known results for compounds:
INPUT: Query: recorded result category for CO[C@H]1[C@@H](O)C[C@H](O[C@H]2[C@@H](O)C[C@H](O[C@H]3[C@@H](O)C[C@H](O[C@H]4CC[C@@]5(C)[C@H](CC[C@@H]6[C@@H]5C[C@@H](O)[C@]5(C)[C@@H](C7=CC(=O)OC7)CC[C@]65O)C4)O[C@@H]3C)O[C@@H]2C)O[C@@H]1C in this test
OUTPUT: active

INPUT: Query: recorded result category for CCC1(c2ccccc2)C(=O)NC(=O)NC1=O in this test
OUTPUT: inactive

More entries:
INPUT: Query: recorded result category for O=C(NC(=O)c1c(F)cccc1F)Nc1ccc(Cl)c(Oc2ncc(C(F)(F)F)cc2Cl)c1 in this test
OUTPUT: inactive

INPUT: Query: recorded result category for CN1CCCC(=C(c2cccs2)c2cccs2)C1 in this test
OUTPUT: inactive

INPUT: Query: recorded result category for CCCCC[C@@H](O)C1C(=O)OC(C)[C@H](O)/C=C/C=C/C=C/C=C/C=C(\C)C(O)C(O)C(O)C[C@H](O)C[C@H](O)C[C@H](O)C[C@H](O)C[C@@H]1O (stereo partly drawn) in this test
OUTPUT: inactive
